Assign SSMD to each entry below.
# Method Summary: modifiers of HSF1 nuclear foci, imaging, Selleck Cancer Library (AID 1347162)
# Assay Context: human cells, at 10 µM; measured here: HSF1 foci SSMD mean

Identify the reported SSMD for the following entry. Nc1ccn([C@@H]2O[C@H](CO)[C@@H](O)C2O)c(=O)n1 (stereo partly drawn)
-7.27

Identify the reported SSMD for the following entry. CNC(=O)c1ccccc1Sc1ccc2c(/C=C/c3ccccn3)n[nH]c2c1
5.16

Identify the reported SSMD for the following entry. CC(C)n1c(/C=C/[C@@H](O)C[C@@H](O)CC(=O)O)c(-c2ccc(F)cc2)c2ccccc21
2.42

Identify the reported SSMD for the following entry. O=C(CCCCCCC(=O)Nc1ccccc1)NO
-0.489

Identify the reported SSMD for the following entry. O=C(O[C@@H]1Cc2c(O)cc(O)cc2O[C@@H]1c1cc(O)c(O)c(O)c1)c1cc(O)c(O)c(O)c1
0.931

Identify the reported SSMD for the following entry. Nc1cccc2c1CN(C1CCC(=O)NC1=O)C2=O (stereo not drawn)
2.07

Identify the reported SSMD for the following entry. FC(F)c1nc2ccccc2n1-c1nc(N2CCOCC2)nc(N2CCOCC2)n1
-0.274

Identify the reported SSMD for the following entry. Cc1nc(Nc2ncc(C(=O)Nc3c(C)cccc3Cl)s2)cc(N2CCN(CCO)CC2)n1
-0.87

Identify the reported SSMD for the following entry. CC(C)C[C@H](NC(=O)[C@H](Cc1ccccc1)NC(=O)c1cnccn1)B(O)O
3.94

Identify the reported SSMD for the following entry. Cc1ccc(-n2nc(C(C)(C)C)cc2NC(=O)Nc2ccc(OCCN3CCOCC3)c3ccccc23)cc1
3.54

Identify the reported SSMD for the following entry. Clc1ccc(Nc2nnc(Cc3ccncc3)c3ccccc23)cc1
2.9

Identify the reported SSMD for the following entry. CN(C)c1nc(N(C)C)nc(N(C)C)n1
0.836

Identify the reported SSMD for the following entry. Cc1cc(O)c2c(c1)C(=O)c1cccc(O)c1C2=O
1.91

Identify the reported SSMD for the following entry. COC1=C(OC)C(=O)C(C/C=C(\C)CC/C=C(\C)CC/C=C(\C)CC/C=C(\C)CC/C=C(\C)CC/C=C(\C)CC/C=C(\C)CC/C=C(\C)CC/C=C(\C)CCC=C(C)C)=C(C)C1=O
2.18

Identify the reported SSMD for the following entry. CC/C(=C(\c1ccccc1)c1ccc(OCCN(C)C)cc1)c1ccccc1
-8.19

Identify the reported SSMD for the following entry. COc1cccc2c1C(=O)c1c(O)c3c(c(O)c1C2=O)C[C@@](O)(C(C)=O)C[C@@H]3O[C@H]1C[C@H](N)[C@H](O)[C@H](C)O1
-15.6

Identify the reported SSMD for the following entry. CCC1=C[C@@H]2CN(C1)Cc1c([nH]c3ccccc13)[C@@](C(=O)OC)(c1cc3c(cc1OC)N(C)[C@H]1[C@@](O)(C(=O)OC)[C@H](OC(C)=O)[C@]4(CC)C=CCN5CC[C@]31[C@@H]54)C2
1.19

Identify the reported SSMD for the following entry. CC1=C(/C=C/C(C)=C/C=C/C(C)=C/C(=O)Nc2ccc(O)cc2)C(C)(C)CCC1
-4.16

Data provenance is PubChem BioAssay.
